We begin with a simple list: items and their reported DC50.
- assaySystem: IKZF2 (Homo sapiens, UniProt Q96SW2+Q9UKS7)
- assay: Human whole blood IKZF2 degradation (flow cytometry, CD4/CD25/Foxp3+ Treg cells)
- Assay type: cell-based
- Design: endogenous in cells
- conditionLabel: 24 hrs incubation, IKZF2 MFI in CD4/CD25/Foxp3+ Treg cells, flow cytometry, read-out: IKZF2 EC50
- Sequence (Q9UKS7 whole entry): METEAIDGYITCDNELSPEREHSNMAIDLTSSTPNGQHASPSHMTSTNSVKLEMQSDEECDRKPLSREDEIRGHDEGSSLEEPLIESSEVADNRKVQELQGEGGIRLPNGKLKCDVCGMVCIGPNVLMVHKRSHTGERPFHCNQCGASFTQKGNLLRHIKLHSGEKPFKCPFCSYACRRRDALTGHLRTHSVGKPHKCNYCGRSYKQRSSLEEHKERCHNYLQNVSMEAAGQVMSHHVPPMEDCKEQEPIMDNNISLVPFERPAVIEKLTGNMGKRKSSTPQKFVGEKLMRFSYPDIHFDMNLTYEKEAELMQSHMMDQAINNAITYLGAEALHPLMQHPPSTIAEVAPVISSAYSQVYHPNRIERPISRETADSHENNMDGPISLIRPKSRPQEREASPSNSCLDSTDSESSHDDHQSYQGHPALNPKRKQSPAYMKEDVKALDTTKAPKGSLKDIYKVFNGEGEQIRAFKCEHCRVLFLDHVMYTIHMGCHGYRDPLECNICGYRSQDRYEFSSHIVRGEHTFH
- Sequence (Q96SW2 whole entry): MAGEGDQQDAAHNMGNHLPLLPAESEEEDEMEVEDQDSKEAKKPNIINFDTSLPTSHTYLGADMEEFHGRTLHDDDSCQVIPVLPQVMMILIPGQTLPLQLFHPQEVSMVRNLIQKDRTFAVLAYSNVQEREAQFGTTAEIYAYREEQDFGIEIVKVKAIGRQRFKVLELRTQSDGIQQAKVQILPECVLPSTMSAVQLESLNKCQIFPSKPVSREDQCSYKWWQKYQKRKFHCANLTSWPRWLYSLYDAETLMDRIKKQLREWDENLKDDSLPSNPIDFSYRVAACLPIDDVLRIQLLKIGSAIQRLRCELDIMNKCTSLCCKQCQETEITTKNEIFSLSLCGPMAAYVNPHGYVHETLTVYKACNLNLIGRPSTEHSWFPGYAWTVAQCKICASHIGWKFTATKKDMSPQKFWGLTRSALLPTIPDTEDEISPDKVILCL
- Sequence (Q16531 whole entry partner): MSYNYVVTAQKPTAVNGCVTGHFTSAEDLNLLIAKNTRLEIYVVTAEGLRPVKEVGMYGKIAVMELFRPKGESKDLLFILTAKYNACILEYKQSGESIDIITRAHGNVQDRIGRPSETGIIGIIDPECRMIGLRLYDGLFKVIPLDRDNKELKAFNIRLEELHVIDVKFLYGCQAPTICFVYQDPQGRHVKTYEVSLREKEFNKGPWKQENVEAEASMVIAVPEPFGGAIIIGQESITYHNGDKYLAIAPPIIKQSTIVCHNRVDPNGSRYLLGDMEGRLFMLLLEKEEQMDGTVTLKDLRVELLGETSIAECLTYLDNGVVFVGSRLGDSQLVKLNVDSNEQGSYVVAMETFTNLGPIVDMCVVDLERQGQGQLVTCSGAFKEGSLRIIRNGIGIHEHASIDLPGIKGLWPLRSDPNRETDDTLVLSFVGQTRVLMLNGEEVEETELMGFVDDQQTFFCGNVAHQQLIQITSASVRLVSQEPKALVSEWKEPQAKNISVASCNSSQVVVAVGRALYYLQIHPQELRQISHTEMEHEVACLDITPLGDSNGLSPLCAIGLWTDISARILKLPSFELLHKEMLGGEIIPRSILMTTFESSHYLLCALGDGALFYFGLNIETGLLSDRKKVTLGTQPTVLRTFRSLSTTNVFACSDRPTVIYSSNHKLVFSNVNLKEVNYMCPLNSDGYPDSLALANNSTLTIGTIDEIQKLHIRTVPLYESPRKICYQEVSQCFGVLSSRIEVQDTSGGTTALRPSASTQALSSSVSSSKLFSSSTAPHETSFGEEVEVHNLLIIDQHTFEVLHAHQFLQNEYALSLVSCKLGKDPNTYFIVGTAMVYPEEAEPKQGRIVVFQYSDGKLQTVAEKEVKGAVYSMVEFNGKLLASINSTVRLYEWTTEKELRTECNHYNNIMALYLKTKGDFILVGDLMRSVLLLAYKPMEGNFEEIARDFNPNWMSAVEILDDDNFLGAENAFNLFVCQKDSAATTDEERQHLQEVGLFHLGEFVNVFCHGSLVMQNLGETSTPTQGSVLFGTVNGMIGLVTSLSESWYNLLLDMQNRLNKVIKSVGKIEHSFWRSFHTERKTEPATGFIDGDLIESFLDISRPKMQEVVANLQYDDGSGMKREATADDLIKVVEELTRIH
Number in nM, nothing else.

For this compound ( CC(CC(F)(F)F)N[C@H]1CCCC[C@@H]1Cc1ccc2c(c1)CN(C1CCC(=O)NC1=O)C2=O (single isomer, unassigned) ), measured DC50 is 4

----------
- assaySystem: IKZF2 (Homo sapiens, UniProt Q96SW2+Q9UKS7)
- assay: HEK293 HiBiT in vitro degradation of IKZF2
- Format: cell-based
- Design: expressed in transfected cells
- conditionLabel: HEK293 HiBiT, 18-24 hr incubation, normalized to DMSO control; read-out: IKZF2 EC50
- Sequence (Q9UKS7 1-500 isoform Q9UKS7-2): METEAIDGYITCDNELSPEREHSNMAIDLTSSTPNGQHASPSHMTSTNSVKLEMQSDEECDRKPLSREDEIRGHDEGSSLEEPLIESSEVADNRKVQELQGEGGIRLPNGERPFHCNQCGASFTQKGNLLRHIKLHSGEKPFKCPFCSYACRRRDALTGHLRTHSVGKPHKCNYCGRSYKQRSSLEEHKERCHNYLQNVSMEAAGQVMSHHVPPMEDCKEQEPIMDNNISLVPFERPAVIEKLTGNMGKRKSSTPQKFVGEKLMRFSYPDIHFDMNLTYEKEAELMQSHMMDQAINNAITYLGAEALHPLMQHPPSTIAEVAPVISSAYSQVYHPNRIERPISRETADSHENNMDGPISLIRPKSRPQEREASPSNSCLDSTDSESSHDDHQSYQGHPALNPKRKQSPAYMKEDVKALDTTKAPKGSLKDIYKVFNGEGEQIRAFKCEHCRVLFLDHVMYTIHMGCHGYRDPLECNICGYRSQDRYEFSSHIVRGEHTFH
- Sequence (Q96SW2 whole entry): as the sequence (Q96SW2 whole entry) above
- Sequence (Q16531 whole entry partner): as the sequence (Q16531 whole entry partner) above
quantityKind: DC50
Please provide the amount together with its unit, number first.

Consider the worked cases shown below.
molecule="N[C@H]1CCCC[C@@H]1Cc1ccc2c(c1)CN(C1CCC(=O)NC1=O)C2=O (some centres unmarked) [Example 1]" assaysystem="IKZF2 (Homo sapiens, UniProt Q96SW2+Q9UKS7)" quantitykind=DC50 obsvalue="225 nM"
molecule="O=C1CCC(N2Cc3cc(C[C@H]4CCCC[C@@H]4NC4CCOC4)ccc3C2=O)C(=O)N1 (some centres unmarked) [Example 73]" assaysystem="IKZF2 (Homo sapiens, UniProt Q96SW2+Q9UKS7)" quantitykind=DC50 obsvalue="7 nM"
molecule="O=C1CCC(N2Cc3cc(C[C@H]4CCCC[C@@H]4N4CC(Oc5ccccc5Cl)C4)ccc3C2=O)C(=O)N1 (some centres unmarked) [Example 30]" assaysystem="IKZF2 (Homo sapiens, UniProt Q96SW2+Q9UKS7)" quantitykind=DC50 obsvalue="29 nM"

Input COC1CCC(N[C@H]2CCCC[C@@H]2Cc2ccc3c(c2)CN(C2CCC(=O)NC2=O)C3=O)CC1 (single isomer, unassigned) [Example 277] . Output DC50: 3 nM

Form: molecule = CC(N[C@H]1CCCC[C@@H]1Cc1ccc2c(c1)CN(C1CCC(=O)NC1=O)C2=O)C1(C(F)F)CC1 (some centres unmarked) [Example 312] ; DC50 = 9 nM

// O=C1CCC(N2Cc3cc(C[C@H]4CCCC[C@@H]4NCc4ccc5ccccc5c4)ccc3C2=O)C(=O)N1 (some centres unmarked) [Example 9] : DC50 value = 19 nM

Item: CC1CC[C@H](NC2CCC(F)(F)CC2)[C@@H](Cc2ccc3c(c2)CN(C2CCC(=O)NC2=O)C3=O)C1 (single isomer, unassigned) [Example 324] | DC50: 3 nM

The value of DC50 measured for the molecule O=C1CCC(N2Cc3cc(C[C@H]4CCCC[C@@H]4NC4CCC(OC(F)(F)F)CC4)ccc3C2=O)C(=O)N1 (single isomer, unassigned) [Example 145] turned out to be 2 nM

get_value(item= CC(N[C@H]1CCCC[C@@H]1Cc1ccc2c(c1)CN(C1CCC(=O)NC1=O)C2=O)C1(C)CC1 (some centres unmarked) [Example 235] , readout=DC50) returns 9 nM

Recorded result, COC1CCC(N[C@H]2CCCO[C@@H]2Cc2ccc3c(c2F)CN(C2CCC(=O)NC2=O)C3=O)CC1 (some centres unmarked) [Example 159] , DC50: 6 nM

Lab note: CC(C)N[C@H]1CC(F)(F)CC[C@@H]1Cc1ccc2c(c1)CN(C1CCC(=O)NC1=O)C2=O (some centres unmarked) [Example 348] gave DC50 of 2 nM

For record O=C1CCC(N2Cc3cc(C[C@H]4CCCC[C@@H]4NCC45CC(c6ccccc6)(C4)C5(F)F)ccc3C2=O)C(=O)N1 (some centres unmarked) [Example 174] the listed DC50 is 67 nM

Record CC1(C)CCC(N[C@H]2CCCO[C@@H]2Cc2ccc3c(c2F)CN(C2CCC(=O)NC2=O)C3=O)C1 (single isomer, unassigned) [Example 259] . Reported DC50: 11 nM

So, O=C1CCC(N2Cc3cc(C[C@H]4CCCC[C@@H]4NCc4cc(F)ccc4F)ccc3C2=O)C(=O)N1 (some centres unmarked) [Example 22] ? Its DC50 was 34 nM

Where do these numbers come from? They come from patent US11897862B2.
